Assay: NCI Yeast Anticancer Drug Screen. Data for the rad50 strain (AID 155);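 also: 0% = growth of vehicle-only cultures of the same strain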
Conditions: S. cerevisiae rad50 strain growth inhibition; at 50.0 µM (retest, dose inferred, filed as 5.0); hits give high values
The panel holds about 79,000 compounds, 15% with a hit somewhere; the sample as a whole holds those more often. Active and inactive are the calls of the source. Rule as the data show it: active = growth inhibition above about 70%; inactive = the rest.
MEASUREMENT_NAME: growth inhibition

- COMPOUND: "[O-][n+]1cccc2cccc(O)c21"
  growth inhibition: "61% (inactive)"
- COMPOUND: "CCCCCCCCCCCCCCCCSC(=NCC)NCC"
  growth inhibition: "99% (active)"
- COMPOUND: "OCCNC(c1ccc(Cl)cc1)C(O)c1ccc(Cl)cc1 (configuration not stated)"
  growth inhibition: "62% (inactive)"
- COMPOUND: "CC(C)CNC(=O)C(C)O (configuration not stated)"
  growth inhibition: "88% (active)"
- COMPOUND: "N#C/C(=N\\Nc1ccc(Cl)cc1)C(=O)C1CC1"
  growth inhibition: "62% (inactive)"
- COMPOUND: "O=C1C(=O)c2cccnc2-c2ncccc21"
  growth inhibition: "98% (active)"

Here is the next item to consider.
QUERY: Consider the compound shown here: CCCCC(CC)CNC(=O)/C=C\C(=O)O (configuration not stated) What is its recorded growth inhibition?
RESULT: 85% (active)
